Source of measurements: PubChem BioAssay (NCATS)

Assay: qHTS of pediatric cancer cell lines to identify multiple opportunities for drug repurposing: Primary screen for OHS-50 cells (AID 1347103); also: nearly all actives have a fitted effect of over 40% in size
Details: OHS-50 osteosarcoma viability, CellTiter-Glo luminescence, 48 h; series mostly up to 57.3 µM
Results filed as inconclusive are left out. Calls of active or inactive are those of the source. Calls follow the shape of the dose curve; as a rule, active = well fitted cell-killing curve with a large enough effect; inconclusive = small, poorly fitted or top-dose-only effect; inactive = no such curve, though single readings can be large or run the other way.
Labels: active, inactive

# compound, class-name
measured = [
    ("CO[C@H]1C[C@@H]2CC[C@@H](C)[C@@](O)(O2)C(=O)C(=O)N2CCCC[C@@H]2C(=O)O[C@H]([C@H](C)C[C@@H]2CC[C@H](OCCO)[C@H](OC)C2)CC(=O)[C@H](C)C=C(C)[C@@H](O)[C@@H](OC)C(=O)[C@H](C)C[C@H](C)C=CC=CC=C1C", "active"),
    ("CC[C@H]1OC(=O)[C@H](C)[C@@H](O[C@H]2C[C@@](C)(OC)[C@@H](O)[C@H](C)O2)[C@H](C)[C@@H](O[C@@H]2O[C@H](C)C[C@H](N(C)C)[C@@H]2O)[C@](C)(O)C[C@@H](C)CN(C)[C@H](C)[C@@H](O)[C@]1(C)O", "inactive"),
    ("C[N+](C)(C)CC(=O)O", "inactive"),
    ("NC1CCC(Nc2nc(Nc3ccc(C(=O)N4CCCCC4)cc3)c3ncn(-c4cccc(F)c4)c3n2)CC1 (configuration not stated)", "inactive"),
    ("Nc1ncnc2c1ncn2[C@@H]1O[C@@H](CO)[C@H](O)[C@H]1O", "inactive"),
    ("O=C1Nc2ccc(Cl)cc2C(C#CC2CC2)(C(F)(F)F)O1 (configuration not stated)", "active"),
    ("O=C1C[C@@H](c2ccc(O)cc2)Oc2cc(O)cc(O)c21", "inactive"),
]

====

Test: NCATS anti-infectives library activity on HEK293 viability as a counter-qHTS vs the C. elegans viability qHTS (AID 1745854);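 also: HEK293 cells exposed to compounds for 24 hr before the viability read; % is scaled to controls: 0 for no effect and ±100 for the full control effect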
Settings: HEK293 viability counter-screen; series mostly up to 41.8 µM
Records with an inconclusive call do not appear. Calls of active or inactive are those of the source. Calls come from the whole dose curve; as a rule, active = well fitted cell-killing curve with a large enough effect; inconclusive = small, poorly fitted or top-dose-only effect; inactive = flat fitted curve, though single readings scatter.

# smiles, activity change, negative = cytotoxicity
measured = [
    ("O=C(Nc1c(Cl)cncc1Cl)c1ccc(OC(F)F)c(OCC2CC2)c1", "inactive"),
    ("CC(=O)N[C@@H](CS)C(=O)O", "inactive"),
    ("Cn1c(N2CCCCS2(=O)=O)nc(C(=O)NCc2ccc(F)cc2)c(O)c1=O", "inactive"),
    ("C=CCc1ccc(O)c(-c2ccc(O)c(CC=C)c2)c1", "inactive"),
    ("O=C(O)c1ccc(-c2c[nH]c3ncc(-c4ccccc4)cc23)cc1C1CCCC1", "inactive"),
    ("CCCCCN(C)CCC(O)(P(=O)(O)O)P(=O)(O)O", "-3.04% [at 3.71 µM] (inactive)"),
]

====

Experiment: qHTS of pediatric cancer cell lines to identify multiple opportunities for drug repurposing: Primary screen for MG 63 (6-TG R) cells (AID 1347105); also: nearly all actives have a fitted effect of over 50% in size
Conditions: MG 63 (6-TG R) viability, CellTiter-Glo, 48 h; series mostly up to 46 µM
Records with an inconclusive call do not appear. Active and inactive are the calls of the source. Calls come from the whole dose curve; as a rule, active = well fitted cell-killing curve with a large enough effect; inconclusive = small, poorly fitted or top-dose-only effect; inactive = no such curve, though single readings can be large or run the other way.
Possible outcomes: t for active, f for inactive

# molecule, class-name
measured = [
    ("Cc1c(O)cccc1C(=O)N[C@@H](CSc1ccccc1)[C@H](O)CN1C[C@H]2CCCC[C@@H]2C[C@@H]1C(=O)NC(C)(C)C", "t"),
    ("OC[C@@H](O)[C@H](O)[C@H](O)[C@@H](O)CO", "f"),
    ("CCCCCN(C)CCC(O)(P(=O)(O)O)P(=O)(O)O", "f"),
    ("C[N+](C)(C)CC(=O)O", "f"),
    ("C[C@@H](O)[C@H]1C(=O)N2C(C(=O)O)=C(S[C@@H]3CN[C@H](C(=O)N(C)C)C3)[C@H](C)[C@H]12", "f"),
    ("CC[C@]1(O)C[C@@H]2CN(CCc3c([nH]c4ccccc34)[C@@](C(=O)OC)(c3cc4c(cc3OC)N(C=O)[C@@H]3C45CCN4CC=C[C@](CC)([C@H]45)[C@@H](OC(C)=O)[C@]3(O)C(=O)OC)C2)C1 (stereo partly drawn)", "f"),
    ("Cc1ccccc1C(C(=O)NC1CCCCC1)N(C(=O)Cn1ccnc1C)c1cccc(F)c1 (stereo not drawn)", "f"),
    ("Cc1ccc(Nc2cc(-c3cccc(N4C(=O)c5ccccc5C4=O)c3)ncn2)cc1NS(C)(=O)=O", "f"),
]

====

Assay: qHTS of pediatric cancer cell lines to identify multiple opportunities for drug repurposing: Primary screen for RD cells (AID 1347104); also: nearly all actives have a fitted effect of over 55% in size
Details: RD rhabdomyosarcoma viability, CellTiter-Glo luminescence, 48 h; series mostly up to 46 µM
Experimental: Drug repurposing or repositioning has been offered as a strategy for drug development in oncology programs. This approach has special potential for childhood cancers and other rare or orphan diseases, where the expected return on new drug development has been a disincentive to pharmaceuticals. […] We employed a titration-based paradigm (quantitative high-throughput screening or qHTS), where all compounds were tested at multiple concentrations for their effect on cell viability. […]
Inconclusive results are not listed. Active and inactive are the calls of the source. Calls follow the shape of the dose curve; as a rule, active = well fitted cell-killing curve with a large enough effect; inconclusive = small, poorly fitted or top-dose-only effect; inactive = flat fitted curve, though single readings scatter.
Possible outcomes: true for active, false for inactive

# compound, class-name
rows = [
    ("COc1ccc(Cc2ccc(NC(N)=O)cc2)cc1-c1cccc(Cl)c1", "false"),
    ("CC1=C(/C=C/C(C)=C/C=C/C(C)=C/C(=O)Nc2ccc(O)cc2)C(C)(C)CCC1", "true"),
    ("O=c1c(-c2ccc(O)cc2)coc2cc(O[C@@H]3O[C@H](CO)[C@H](O)[C@H](O)[C@H]3O)ccc12", "false"),
    ("Nc1ncnc2c1ncn2[C@@H]1O[C@H](CO)C[C@@H]1O", "false"),
    ("NC1CCC(Nc2nc(Nc3ccc(C(=O)N4CCCCC4)cc3)c3ncn(-c4cccc(F)c4)c3n2)CC1 (stereo not drawn)", "false"),
    ("CO[C@@H](C(=O)N1Cc2[nH]nc(NC(=O)c3ccc(N4CCN(C)CC4)cc3)c2C1)c1ccccc1", "true"),
    ("Nc1ncnc2ccccc12", "false"),
    ("NC(CO)(CO)CCc1ccc(Sc2cccc(OCc3ccccc3)c2)cc1Cl", "true"),
    ("CC(=O)Oc1cc2c(s1)CCN(C(C(=O)C1CC1)c1ccccc1F)C2 (stereo not drawn)", "false"),
    ("O=C(O)CCc1nc(-c2ccccc2)c(-c2ccccc2)o1", "false"),
    ("CN(C)CCC(c1ccccc1)c1ccccn1 (stereo not drawn)", "false"),
    ("O=c1[nH]cnc2c1ncn2[C@H]1CC[C@@H](CO)O1", "false"),
    ("Cc1[nH]c(C=C2C(=O)Nc3ccc(S(=O)(=O)Cc4c(Cl)cccc4Cl)cc32)c(C)c1C(=O)N1CCC[C@H]1CN1CCCC1", "true"),
    ("Clc1ccc(-c2nc3sccn3c2C=NOCc2ccc(Cl)c(Cl)c2)cc1", "false"),
    ("CC=CC[C@@H](C)C(=O)[C@H]1C(=O)N[C@@H](C(C)C)C(=O)N(C)CC(=O)N(C)[C@@H](CC(C)C)C(=O)N[C@@H](C(C)C)C(=O)N(C)[C@@H](CC(C)C)C(=O)N[C@@H](C)C(=O)N[C@H](C)C(=O)N(C)[C@@H](CC(C)C)C(=O)N(C)[C@@H](CC(C)C)C(=O)N(C)[C@@H](C(C)C)C(=O)N1C", "false"),
    ("CC(C)n1cnc2c(NCCCCCCNC(=O)OC(C)(C)C)nc(NCCO)nc21", "true"),
    ("O=C1NC(=O)C(=Cc2cccc(C(F)(F)F)c2)S1", "false"),
    ("CCOC(=O)C1=C(N)Oc2ccc(Br)cc2C1C(C#N)C(=O)OCC (stereo not drawn)", "true"),
    ("OC[C@@H](O)[C@H](O)[C@H](O)[C@@H](O)CO", "false"),
    ("CC(C)=CC[C@@H](O)C1=CC(=O)c2c(O)ccc(O)c2C1=O", "true"),
    ("O=C(O)[C@H]1O[C@H](Oc2cc3oc(-c4ccccc4)cc(=O)c3c(O)c2O)[C@H](O)[C@@H](O)[C@H]1O", "false"),
    ("CC(=NNC(=S)N1CCC1)c1ccccn1", "true"),
    ("O=C(O)c1cc(O)c2c(c1)C(=O)c1cccc(O)c1C2=O", "false"),
    ("O=C1c2ccccc2-[n+]2ccc3c([nH]c4ccccc43)c21", "true"),
    ("CC1(C)Cc2c(sc(NC(=S)NC(=O)c3ccccc3)c2C(=O)O)CO1", "true"),
    ("O=C(NOCC(O)CO)c1cc(Br)c(F)c(F)c1Nc1ccc(I)cc1F (stereo not drawn)", "true"),
    ("O=C1NC(=O)C(c2ccccc2)(c2ccccc2)N1", "false"),
    ("COc1ccc(-c2coc3cc(O)cc(O)c3c2=O)cc1", "false"),
    ("CO[C@H]1C=CO[C@@]2(C)Oc3c(C)c(O)c4c(O)c(c5c(c4c3C2=O)NC2(CCN(CC(C)C)CC2)N=5)=NC(=O)C(C)=CC=C[C@H](C)[C@H](O)[C@@H](C)[C@@H](O)[C@@H](C)[C@H](OC(C)=O)[C@H]1C", "false"),
    ("Cc1ccc(C(=O)Nc2cccc(C(F)(F)F)c2)cc1Nc1nc(-c2cccnc2)nc2c1cnn2C", "true"),
    ("Oc1ccc(C2=Cc3ccc(O)cc3OC2)cc1", "true"),
    ("O=C(O)c1ccc(-c2cc3cccnc3c(-c3ccc4nonc4c3)n2)cc1", "true"),
    ("O=C(O)C(O)Cc1ccc(O)c(O)c1 (stereo not drawn)", "false"),
    ("CC(=O)Nc1ccc([C@H](C)C(=O)Nc2ncc(C(C)C)s2)cc1", "true"),
    ("CO[C@H]1C[C@@H]2CC[C@@H](C)[C@@](O)(O2)C(=O)C(=O)N2CCCC[C@@H]2C(=O)O[C@H]([C@H](C)C[C@@H]2CC[C@H](OP(C)(C)=O)[C@H](OC)C2)CC(=O)[C@H](C)C=C(C)[C@@H](O)[C@@H](OC)C(=O)[C@H](C)C[C@H](C)C=CC=CC=C1C", "false"),
    ("COC(=O)C1=CO[C@@H](O)[C@@H]2C(CO)=CC[C@@H]12", "false"),
    ("Nc1ncnc2c1nc(Cl)n2[C@@H]1O[C@H](CO)[C@@H](O)[C@@H]1O", "true"),
    ("Cc1cnc(C(=O)O)c[n+]1[O-]", "false"),
]
